These data points were gathered from patent US8969554B2.

Recorded measurements of herbicidal effect index, S. juncoides Rocxb., one per entry
System: Scirpus juncoides Rocxb.
Experimental Details: Herbicidal activity by paddy field soil treatment (Test Example 1)
Format: in vivo
Parameters: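 index 0 to 10 in 10% steps of herbicidal effect with 10 meaning complete death and 0 below 10%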
Condition Parameters: applied on water surface, 1000 g of effective component per hectare, day 21 after the treatment
Procedure: Test for Determining Herbicidal Activity by Paddy Field Soil Treatment A 100 cm^2 wide plastic pot was filled with a paddy field soil and, after watering and shuffling, seeds of each of Echinochloa oryzicola, Monochoria vaginalis, and Scirpus juncoides Rocxb. were sowed and watered to a depth of 3 cm. On the next day, the wettable powder obtained in view of Formulation example 1 was diluted with water and applied on water surface. […]
Answer as a number with no unit attached.

Cc1ccc(-n2c(=O)c(C(=O)C3=C(O)CCCC3=O)nn(C)c2=O)cc1F [I-105]    10
Cc1ccc(-n2c(=O)c(C(=O)C3=C(O)CCCC3=O)nn(C)c2=O)c(F)c1 [I-108]    10
Cn1nc(C(=O)C2=C(O)CCCC2=O)c(=O)n(-c2cccs2)c1=O [I-198]    10

Now take the following compound into account.
For the compound Cn1nc(C(=O)O)c(=O)n(-c2cc(Cl)c(Cl)c(Cl)c2)c1=O [V-358] , give its measured herbicidal effect index, S. juncoides Rocxb. value.
10

* * *

System: Monochoria vaginalis
Experimental Details: Herbicidal activity by paddy field soil treatment (Test Example 1)
Format: in vivo
Design: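 index 0 to 10 in 10% steps of herbicidal effect with 10 meaning complete death and 0 below 10%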
Condition Parameters: 1000 g of effective component per hectare, evaluated on day 21 after the treatment, criteria of Table 72
Measured Quantity: Herbicidal effects index number, Monochoria vaginalis

Observe how each entry below is paired with its result.
Cc1ccc(-n2c(=O)c(C(=O)C3=C(O)CCCC3=O)nn(C)c2=O)nc1    8
CC(CCn1c(=O)c(C(=O)C2=C(O)CCCC2=O)nn(C)c1=O)=C(F)F    10
COc1cc(-n2c(=O)c(C(=O)C3=C(O)C(C)(C)C(=O)C(C)(C)C3=O)nn(C)c2=O)cc(OC)c1OC    10

Now take the following molecule into account.
For the molecule Cn1nc(C(=O)C2=C(O)CCCC2=O)c(=O)n(-c2c(F)c(F)cc(F)c2F)c1=O , give its measured Herbicidal effects index number, Monochoria vaginalis value.
10

* * *

System: Echinochloa crus-galli
Experimental Details: Herbicidal activity by field soil treatment (Test example 2)
Type: in vivo
Design: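 index 0 to 10 in 10% steps of herbicidal effect with 10 meaning complete death and 0 below 10%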
Condition Parameters: 1000 g effective component per hectare, day 21 after the treatment
Recorded measurements of herbicidal effect index, Echinochloa crus-galli, one per entry
Answer as a number with no unit attached.

For the compound Cc1ccc(-n2c(=O)c(C(=O)C3=C(O)CCCC3=O)nn(C)c2=O)cn1 [I-289] , give its measured herbicidal effect index, Echinochloa crus-galli value.
9

For the compound Cc1ccc(-n2c(=O)c(C(=O)C3=C(O)CCCC3=O)nn(C)c2=O)nc1 [I-182] , give its measured herbicidal effect index, Echinochloa crus-galli value.
7

For the compound Cn1nc(C(=O)C2=C(O)CCCC2=O)c(=O)n(-c2cc(Cl)cc(Cl)c2)c1=O [I-82] , give its measured herbicidal effect index, Echinochloa crus-galli value.
9

* * *

Recorded measurements of herbicidal effect index, Echinochloa crus-galli, one per entry
Test system: Echinochloa crus-galli
Experimental Details: Herbicidal activity by field soil treatment (Test example 2)
Assay type: in vivo
Design: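 index 0 to 10 in 10% steps of herbicidal effect with 10 meaning complete death and 0 below 10%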
Condition Parameters: 1000 g effective component per hectare, day 21 after the treatment
Answer as a number with no unit attached.

Observe how each entry below is paired with its result.
Cn1nc(C(=O)C2=C(O)CCCC2=O)c(=O)n(-c2ccc(C(F)(F)F)cc2)c1=O    10
Cc1cncc(-n2c(=O)c(C(=O)C3=C(O)CCCC3=O)nn(C)c2=O)c1    9
Cc1ccc(-n2c(=O)c(C(=O)C3=C(O)CCCC3=O)nn(C)c2=O)c(C)c1    8
Cn1nc(C(=O)C2=C(O)CCCC2=O)c(=O)n(-c2cccc(F)c2F)c1=O    9
Cc1ccc(-n2c(=O)c(C(=O)C3=C(O)CCCC3=O)nn(C)c2=O)cc1F    9
Cn1nc(C(=O)C2=C(O)CCCC2=O)c(=O)n(-c2ccc([N+](=O)[O-])cc2)c1=O    10

For the compound Cn1nc(C(=O)C2=C(O)CCCC2=O)c(=O)n(-c2c(Cl)cccc2Cl)c1=O , give its measured herbicidal effect index, Echinochloa crus-galli value.
10

For the compound COc1cc(-n2c(=O)c(C(=O)C3=C(O)CCCC3=O)nn(C)c2=O)ccc1Cl , give its measured herbicidal effect index, Echinochloa crus-galli value.
9

For the compound Cc1ccc(F)c(-n2c(=O)c(C(=O)C3=C(O)CCCC3=O)nn(C)c2=O)c1 , give its measured herbicidal effect index, Echinochloa crus-galli value.
9

* * *

Tested on: Monochoria vaginalis
Experimental Details: Herbicidal activity by paddy field soil treatment (Test Example 1)
Format: in vivo
Set-up: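 index 0 to 10 in 10% steps of herbicidal effect with 10 meaning complete death and 0 below 10%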
Condition Parameters: 1000 g of effective component per hectare, evaluated on day 21 after the treatment, criteria of Table 72
Measured Quantity: Herbicidal effects index number, Monochoria vaginalis
Answer as a number with no unit attached.

Observe how each entry below is paired with its result.
Cn1nc(C(=O)C2=C(O)CCCC2=O)c(=O)n(Cc2ccccc2)c1=O [I-205]    10
Cn1nc(C(=O)C2=C(O)CCCC2=O)c(=O)n(-c2cc(F)c(F)c(F)c2)c1=O [I-302]    10
Cn1nc(C(=O)C2=C(O)CCCC2=O)c(=O)n(N2CCSCC2)c1=O [I-203]    10

For the molecule Cn1nc(C(=O)C2=C(O)CCCC2=O)c(=O)n(-c2ccc(-c3ccccc3)cc2)c1=O [I-271] , give its measured Herbicidal effects index number, Monochoria vaginalis value.
8

For the molecule CCn1c(=O)c(C(=O)C2=C(O)CCCC2=O)nn(-c2ccccn2)c1=O [I-275] , give its measured Herbicidal effects index number, Monochoria vaginalis value.
10

For the molecule COc1ccc(Cl)cc1-n1c(=O)c(C(=O)C2=C(O)CCCC2=O)nn(C)c1=O [I-134] , give its measured Herbicidal effects index number, Monochoria vaginalis value.
10

For the molecule Cc1cccc(F)c1-n1c(=O)c(C(=O)C2=C(O)CCCC2=O)nn(C)c1=O [I-110] , give its measured Herbicidal effects index number, Monochoria vaginalis value.
10

For the molecule Cc1cccc(-n2c(=O)c(C(=O)C3=C(O)CCCC3=O)nn(C)c2=O)n1 [I-279] , give its measured Herbicidal effects index number, Monochoria vaginalis value.
8

For the molecule Cn1nc(C(=O)C2=C(O)CCCC2=O)c(=O)n(-c2cccc(C#N)c2)c1=O [I-73] , give its measured Herbicidal effects index number, Monochoria vaginalis value.
10

For the molecule COc1ccc(-n2c(=O)c(C(=O)C3=C(O)CCCC3=O)nn(C)c2=O)c(OC)c1OC [I-298] , give its measured Herbicidal effects index number, Monochoria vaginalis value.
10

For the molecule COc1cc(OC)cc(-n2c(=O)c(C(=O)C3=C(O)CCCC3=O)nn(C)c2=O)c1 [Compound I-94] , give its measured Herbicidal effects index number, Monochoria vaginalis value.
10

For the molecule Cn1nc(C(=O)C2=C(O)CCCC2=O)c(=O)n(-c2ccccc2-c2ccccc2)c1=O [I-269] , give its measured Herbicidal effects index number, Monochoria vaginalis value.
8

For the molecule Cn1nc(C(=O)C2=C(O)CCCC2=O)c(=O)n(N2CCCCC2)c1=O [I-304] , give its measured Herbicidal effects index number, Monochoria vaginalis value.
10

For the molecule Cc1cccc(-n2c(=O)c(C(=O)C3=C(O)CCCC3=O)nn(C)c2=O)c1Cl [I-127] , give its measured Herbicidal effects index number, Monochoria vaginalis value.
10

For the molecule CC(C)N(c1ccccc1)n1c(=O)c(C(=O)O)nn(C)c1=O [V-369] , give its measured Herbicidal effects index number, Monochoria vaginalis value.
10

* * *

Test system: Echinochloa crus-galli
Experimental Details: Herbicidal activity by field soil treatment (Test example 2)
Type: in vivo
Parameters: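 index 0 to 10 in 10% steps of herbicidal effect with 10 meaning complete death and 0 below 10%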
Condition Parameters: 1000 g effective component per hectare, day 21 after the treatment
Measured Quantity: herbicidal effect index, Echinochloa crus-galli
Answer as a number with no unit attached.

Observe how each entry below is paired with its result.
Cn1nc(C(=O)C2=C(O)CCCC2=O)c(=O)n(-c2ccc(F)cc2)c1=O    10
CCCCCCn1c(=O)c(C(=O)C2=C(O)CCCC2=O)nn(C)c1=O    7
Cc1cc(Cl)ccc1-n1c(=O)c(C(=O)C2=C(O)CCCC2=O)nn(C)c1=O    10
Cn1nc(C(=O)C2=C(O)CCCC2=O)c(=O)n(-c2ccc(OC(F)(F)F)cc2)c1=O    10

Now take the following compound into account.
For the compound Cn1nc(C(=O)C2=C(O)CCCC2=O)c(=O)n(-c2ccccc2C#N)c1=O , give its measured herbicidal effect index, Echinochloa crus-galli value.
9

* * *

Tested on: Echinochloa crus-galli
Experimental Details: Herbicidal activity by field soil treatment (Test example 2)
Format: in vivo
Set-up: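 index 0 to 10 in 10% steps of herbicidal effect with 10 meaning complete death and 0 below 10%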
Condition Parameters: 1000 g effective component per hectare, day 21 after the treatment
Measured Quantity: herbicidal effect index, Echinochloa crus-galli

Observe how each entry below is paired with its result.
O=C1CCCC(O)=C1C(=O)c1nn(CC(F)(F)F)c(=O)n(-c2ccccc2)c1=O    9
CCON=C(C)Cn1c(=O)c(C(=O)O)nn(C)c1=O    9
COc1ccc(-n2c(=O)c(C(=O)C3=C(O)CCCC3=O)nn(C)c2=O)c(OC)c1OC    7
Cc1ccc(-n2c(=O)c(C(=O)C3=C(O)CCCC3=O)nn(C)c2=O)cc1Cl    7
Cn1nc(C(=O)C2=C(O)CCCC2=O)c(=O)n(-c2ccc(Cl)cn2)c1=O    9

For the compound Cn1nc(C(=O)C2=C(O)CCCC2=O)c(=O)n(C)c1=S , give its measured herbicidal effect index, Echinochloa crus-galli value.
10

For the compound Cn1nc(C(=O)C2=C(O)CCCC2=O)c(=O)n(-c2ccsc2)c1=O , give its measured herbicidal effect index, Echinochloa crus-galli value.
9

For the compound Cc1ccc(-n2c(=O)c(C(=O)C3=C(O)CCCC3=O)nn(C)c2=O)c(Cl)c1 , give its measured herbicidal effect index, Echinochloa crus-galli value.
8

For the compound COc1ccc(-n2c(=O)c(C(=O)C3=C(O)CCCC3=O)nn(C)c2=O)cc1F , give its measured herbicidal effect index, Echinochloa crus-galli value.
8

For the compound C#CCn1c(=O)c(C(=O)C2=C(O)CCCC2=O)nn(C)c1=O , give its measured herbicidal effect index, Echinochloa crus-galli value.
10

For the compound COc1cccc(-n2c(=O)c(C(=O)C3=C(O)CCCC3=O)nn(C)c2=O)c1 , give its measured herbicidal effect index, Echinochloa crus-galli value.
8

For the compound Cc1cc(Br)ccc1-n1c(=O)c(C(=O)C2=C(O)CCCC2=O)nn(C)c1=O , give its measured herbicidal effect index, Echinochloa crus-galli value.
10

For the compound COc1cccc(OC)c1-n1c(=O)c(C(=O)C2=C(O)CCCC2=O)nn(C)c1=O , give its measured herbicidal effect index, Echinochloa crus-galli value.
7

For the compound Cc1ccc(C(F)(F)F)cc1-n1c(=O)c(C(=O)C2=C(O)CCCC2=O)nn(C)c1=O , give its measured herbicidal effect index, Echinochloa crus-galli value.
10

For the compound Cn1nc(C(=O)C2=C(O)CCCC2=O)c(=O)n(-c2ccccc2)c1=O , give its measured herbicidal effect index, Echinochloa crus-galli value.
10

For the compound Cn1nc(C(=O)C2=C(O)CCCC2=O)c(=O)n(-c2ccc(C(F)(F)F)cn2)c1=O , give its measured herbicidal effect index, Echinochloa crus-galli value.
7

For the compound Cc1cccc(-n2c(=O)c(C(=O)C3=C(O)CCCC3=O)nn(C)c2=O)c1F , give its measured herbicidal effect index, Echinochloa crus-galli value.
8

For the compound CCCn1c(=O)c(C(=O)C2=C(O)CCCC2=O)nn(C)c1=O , give its measured herbicidal effect index, Echinochloa crus-galli value.
10

For the compound Cc1ccc(-n2c(=O)c(C(=O)C3=C(O)CCCC3=O)nn(C)c2=O)cc1C , give its measured herbicidal effect index, Echinochloa crus-galli value.
9

For the compound CN(c1ccc(F)cc1)n1c(=O)c(C(=O)C2=C(O)CCCC2=O)nn(C)c1=O , give its measured herbicidal effect index, Echinochloa crus-galli value.
7

For the compound Cc1cccc(C)c1-n1c(=O)c(C(=O)C2=C(O)CCCC2=O)nn(C)c1=O , give its measured herbicidal effect index, Echinochloa crus-galli value.
9
